Tested on: maize HMG13 gene in maize A188 immature embryos
Assay: Genome editing SDN-1 in regenerated T0 plants of maize A188 (Example 5)
Assay type: cell-based
Settings: T0 events with mono-allelic SDN-1
observedProperty: Mon-SDN-1
One number for each entry.

Sample answers from the record:
molecule	Mon-SDN-1
RBP8: artificial regeneration booster protein, SEQ ID NO: 39 (CDS SEQ ID NO: 27), construct pABM-BdEF1_RBP8 (protein) MVSKGEEVIKEFSGSTRWNPTAEQVKVLREIYYRAGLRTPSADQIRQISSQLKRYGKVEGKNVFYWFQNHKARERQKKRLSTVGSAGSAAGSGEFRHVKTLPLFPLHNNEDSGSGLDLDLNLELRLSATAAATSGSQRASALDLDLELRLGFALGNESCGLHDN	4
RBP2: artificial regeneration booster protein, SEQ ID NO: 33 (CDS SEQ ID NO: 21), expressed from construct pABM-BdEF1_RBP2 (protein) MESGSGTAAGSGYVYRQSGSTRWNPTAEQLSLLKELYYRNGIRTPSADQIRQISARLSRYGKIEGKNVFYWFQNHKARERQKKRLSTVGCDPALIEMGNVASLEFGTESALESLSSGPSSELREAPTRKFYEKKTVGENSTIINPVEQNCTLSCGTSQEFQYAVDSRRVMKAMEEKQATDDEPDGNKWTESNRHVKTLPLFPLHNNEDQTLIKSDKEIYCLGSCEKKMDLSPLGHSGSQRASALDLCLSLGNESCGLHDN	14

// next entry
Q. Quick check: Mon-SDN-1 of RBP5: artificial regeneration booster protein, SEQ ID NO: 36 (CDS SEQ ID NO: 24), construct pABM-BdEF1_RBP5 (protein) MVSKGEEVIKEFSGSTRWNPTAEQLSLLKELYYRNGIRTPSADQIRQISARLSRYGKIEGKNVFYWFQNHKARERQKKRLSTVGCGSAGSAAGSGEFRHVKTLPLFPLHNNVETLPLFPEDSGSLDLELELGFASATAAATSGSQRASALDLCLSLGNESCGLHDN ?
A. 3
